# Test system: TO-3-N3-2 (biotin conjugate)
# MEASUREMENT_NOTES: pull-down binding Z-score (relative to library population); higher = stronger binding
# CONDITION_CONTEXT: RNA library: Library-2
Tag: 1 (yes) if measured pull-down binding Z-score is not below -0.2, 0 (no) if it is.

UCUCAAAAUAAUUCUGCAGUGAGA [hsa-mir-4524b]; 1 (yes)
AUCUUUCUGUGCUUUUGCUGUAGAUGCUGCUAAAGCUUACAAAGAU; 1 (yes)

Problem: Does GUUGCUUAGAUUACAUGUAAC [hsa-mir-890] have a reported pull-down binding Z-score of at least -0.2?
Result: 0 (no)

Problem: Same thing, different sequence: CCAUUCUUCGUAAGGGUGG [DMSMaPseq_invitro_SARS-CoV-2_Motif_28]
Result: 0 (no)

Problem: Same thing, different sequence: GGGGUAGAAGCCACCCG [hsa-mir-4466]
Result: 1 (yes)

Problem: Same thing, different sequence: GGUGGAAUUGGACGAUUCUACAUCCAAAUGUGCACC [IAV_invivo_NP_5_Motif_3+IAV_invivo_NP_5_Motif_3]
Result: 0 (no)

Problem: Same thing, different sequence: CGGGGGGGGCCCGGGGACGGCUUGGGCCUGCCUAGUCGG [hsa-mir-1234]
Result: 1 (yes)

Problem: Same thing, different sequence: GGAGAUGAGGCGUUGCCUCCUCC [IAV_invivo_PA_3_Motif_24+IAV_invivo_PA_3_Motif_24]
Result: 0 (no)

Problem: Same thing, different sequence: AAGAGGAGGUGGUUGUUUUCCUCCUCUU [hsa-mir-627]
Result: 1 (yes)

Problem: Same thing, different sequence: AGGCCUGAGUCUCUCUGCUGCAGAUGGGCUC [hsa-mir-422a]
Result: 1 (yes)

Problem: Same thing, different sequence: GACAGGGAAAAGCACACAAGGAACUUGUC [hsa-mir-3909]
Result: 1 (yes)

Problem: Same thing, different sequence: GGAACCUAGUAAUAGGUUUCC [DMSMaPseq_invitro_SARS-CoV-2_Motif_479]
Result: 1 (yes)

Problem: Same thing, different sequence: GAUGCUGUUGUGUGUUUCAAUAGCACUUAUGCAUC
Result: 0 (no)

Problem: Same thing, different sequence: AAGCAGGGUCGGGCCUGGUU [hsa-mir-7641-2]
Result: 1 (yes)

Problem: Same thing, different sequence: AGUCAUAGUCAGUUAGGUGGUUUACAUCUACUGAUUGGACU
Result: 0 (no)

Problem: Same thing, different sequence: UACUAACAGCACUGGAGGGUGUA [hsa-mir-142]
Result: 1 (yes)

Problem: Same thing, different sequence: CUGUCCAAGACAUGUGAUCUGCACCUCUGAAGACAUGCUUAACCCUAAUUAUGAAGAUUUACUCAUUCGUAAGUCUAAUCAUAAUUUCUUGGUACAG
Result: 0 (no)

Problem: Same thing, different sequence: AAUGCAGUCUGCACCCUGCUGCAUU [hsa-mir-6504]
Result: 1 (yes)

Problem: Same thing, different sequence: CUUCUUACUGCACCAGUGAAG [hsa-mir-5683]
Result: 0 (no)

Problem: Same thing, different sequence: CUAGUUGUGAUGCAAUCAUGACUAG
Result: 0 (no)

Problem: Same thing, different sequence: UUUUUCUUUACUUUUAAUGGCAAA [hsa-mir-548u]
Result: 0 (no)

----------
# System: TO-3-N3 (biotin conjugate)
# MEASUREMENT_NOTES: pull-down binding Z-score (relative to library population); higher = stronger binding
# CONDITION_CONTEXT: RNA library: Library-2
Can you tell me pull-down binding Z-score for the items I'm about to list?
Numbers only.

UGUCUUUUUUUUUUUCUGAGACA [hsa-mir-1273c]; -0.718

State the recorded pull-down binding Z-score for every item in the following list.
1. GAAUUCGCUUUAUUUAUGUUGAAUC [hsa-mir-377]
2. AUGCAUGGCUGGUGGCGGCGUGCAG [hsa-mir-6722]
3. CCAAAUCCUUUUCUGAUUUGG [hsa-mir-4520-2]
4. GUUGUCGCUUCCAAGAAAAGGACGAAGAUGACAAU [SHAPE_invitro_SARS-CoV-2_Motif_248]
5. CUCCUAUUGAAAAUGAACAGGAG [hsa-mir-873]
6. CAACUCUCAUGAAGUGUGAUCAUUGUGGUGAAACUUCAUGGCAGACGGGCGAUUUUGUUAAAGCCACUUGCGAAUUUUG
7. CCUGACAGACAGCCUGAUAGACAGG [hsa-mir-4661]
8. GUUGUUACUCACAAUUUUGACUUCACUUUUAGUUUUAGUCCAGAGUACUCAAU

Result:
[-0.514, 0.897, -0.645, 0.276, -0.0676, -0.573, 2, -0.826]

State the recorded pull-down binding Z-score for every item in the following list.
1. UUACUGCAGGGAUCUUAGCAGUAC [hsa-mir-583]
2. CUUUUAUAUCAAGGCACAUAAAAG [hsa-mir-3910-1]
3. GGUACAACAACUUACAAAUUAAAUGUUGGUGAUUAUUUUGUGCU [SHAPE_invivo_SARS-CoV-2_Motif_319]
4. GGGAGAUUAAUGGUCCU [IAV_invivo_PB2_1_Motif_25+IAV_invivo_PB2_1_Motif_25]
5. UUGAUUCAGUAAAACAUUCAA [hsa-mir-891b]
6. GUUGAAGAAGUUACAAC
7. UCCUAUUACGGA [SHAPE_invivo_SARS-CoV-2_Motif_121]
8. GGAAGAGACAGGUACGUUAAUAGUUAAUAGCGUACUUCUUUUUC

Result:
1. 0.295
2. -0.493
3. -0.537
4. 0.341
5. -0.376
6. 0.355
7. -0.479
8. -0.226

----------
# Test system: TO-3-N3-2 (biotin conjugate)
# MEASUREMENT_NOTES: pull-down binding Z-score (relative to library population); higher = stronger binding
# CONDITION_CONTEXT: RNA library: Library-2
QUANTITY_KIND: pull-down binding Z-score
Answers are plain numbers.

UUAAUGGAGUCACAUUAA [DMSMaPseq_invitro_SARS-CoV-2_Motif_357]; -0.347

State the recorded pull-down binding Z-score for every item in the following list.
1. GACUGCUCAAGGUCAAAGGGGUC [hsa-mir-3918]
2. CAAGGAAGAGUCACAGUCUCUUCCUUG [hsa-mir-659]
3. GCUCAAGCCACAGCAGGGUGUUUAGCGCUCUUCAGUGGCUCCAG [hsa-mir-1203]
4. GUCCAUUAGGCUUUGUUAUGGAAACUUCUCCUGAUC [hsa-mir-635]

Result:
1. 0.119
2. -0.285
3. -0.102
4. 0.607

----------
# System: TO-3-N3 (biotin conjugate)
# MEASUREMENT_NOTES: pull-down binding Z-score (relative to library population); higher = stronger binding
# CONDITION_CONTEXT: RNA library: Library-2
Tag: Satisfied if measured pull-down binding Z-score is not below 0.03, Not satisfied if it is.

Use these answered entries as a reference point.
GAAGUCACACCUUC [SHAPE_invitro_SARS-CoV-2_Motif_534]; Not satisfied
UUCCUUGUCUGUAGCCAUGUCUAUGGGCUCUUGAG [hsa-mir-571]; Satisfied
GGCGAUAGUUGUAAUAACUAUAUGCU; Not satisfied
GAAUGGAGAACGCAGUGGGGCGCGAUCAAAACAACGUCGGCCCCAAGGUUUACCCAAUAAUACUGCGUCUUGGUUC; Satisfied
AAGGCGGGUGGUGCUCAGAUCGCCU [hsa-mir-326]; Not satisfied
AUGUGUUGUGAUGGCACAGCGU [hsa-mir-592]; Not satisfied

Problem: Does GUGGCCUUGGACAAGCCUCUUGGUUAC [hsa-mir-4672] have a reported pull-down binding Z-score of at least 0.03?
Result: Not satisfied

Problem: Same thing, different sequence: AGUUAGAAUUCUUAAGUAUCAAAACUAAAU [hsa-mir-4760]
Result: Satisfied

Problem: Same thing, different sequence: CACCAGCCAGGCAUUGCUCAGCCCGUUUCCCUCUGGGGGAGCAAGGAGUGGUGCUGGGUUUGUC [hsa-mir-593]
Result: Satisfied

Problem: Same thing, different sequence: UGUGAGAGCUACUAAGUCUUAUA [hsa-mir-8076]
Result: Satisfied

----------
# Test system: TO-3-N3-2 (biotin conjugate)
# MEASUREMENT_NOTES: pull-down binding Z-score (relative to library population); higher = stronger binding
# CONDITION_CONTEXT: RNA library: Library-2
Tag: yes if measured pull-down binding Z-score is not below -0.3, no if it is.

Problem: Does CAUGCAUGUGUCUAGAAAUAUGUUUU [hsa-mir-507] have a reported pull-down binding Z-score of at least -0.3?
Result: yes

----------
# Tested on: TO-3-N3-2 (biotin conjugate)
# MEASUREMENT_NOTES: pull-down binding Z-score (relative to library population); higher = stronger binding
# CONDITION_CONTEXT: RNA library: Library-2
Can you tell me pull-down binding Z-score for the items I'm about to list?

Answered examples (5):
AUCUUCCUGACCUGGUAAUAAUUAGGUGAGAAGGAU [hsa-mir-8069-2_8069-1]; -0.589
CUCGUCUAUCUUCUGCAGGCUGCUUACGGUUUCGUCCGUGUUGCAGCCGAUCAUCAGCACAUCUAGGUUUCGUCCGGGUGUGACCGAAAGGUAAGAUGGAGAG; -0.556
CAUUGGUGUAAAGCUGGAGACCCACUG [hsa-mir-324]; 0.0332
GGGCUCAUACCC [IAV_invivo_HA_4_Motif_7+IAV_invivo_HA_4_Motif_7]; 0.875
GUUCAGAGUCUGUUUUUGUCUAGC [hsa-mir-29c]; 0.0089

State the recorded pull-down binding Z-score for every item in the following list.
1. UGAGCAGGGUCCACACCAAGUCGUGUUCA [hsa-mir-27a]
2. UUGAGCAUCUUCUGGGCAGCUGA [hsa-mir-7854]

Result:
1. 0.465
2. 0.147

State the recorded pull-down binding Z-score for every item in the following list.
1. GAUUCUUGAGGCUUGGAAGAGUAAGGAUC [hsa-mir-6866]
2. AUUUGAACUCUACUAAUGUCACUAUUGCAACCUACUGUACUGGUUCUAUACCUUGUAGUGUUUGUCUUAGUGGUUUAGAU

Result:
[0.281, -0.244]
